Reported Km values for a set of molecules
target: UniProt O52575; conditions: 100 mM succinate-NaOH, pH 5.3, 25° C. (Example 1)

[
  {
    "Molecule": "OC1OC[C@@H](O[C@@H]2OC[C@@H](O[C@@H]3OC[C@@H](O[C@@H]4OC[C@@H](O[C@@H]5OC[C@@H](O[C@@H]6OC[C@@H](O)[C@H](O)[C@H]6O)[C@H](O)[C@H]5O)[C@H](O)[C@H]4O)[C@H](O)[C@H]3O)[C@H](O)[C@H]2O)[C@H](O)[C@H]1O (stereo partly drawn) [X6, 1,4-β-D-xylohexaose]",
    "Km [mM]": 2.7
  },
  {
    "Molecule": "OC1OC[C@@H](O[C@@H]2OC[C@@H](O[C@@H]3OC[C@@H](O[C@@H]4OC[C@@H](O)[C@H](O)[C@H]4O)[C@H](O)[C@H]3O)[C@H](O)[C@H]2O)[C@H](O)[C@H]1O (stereo partly drawn) [X4, 1,4-β-D-xylotetraose]",
    "Km [mM]": 4
  },
  {
    "Molecule": "OC1OC[C@@H](O[C@@H]2OC[C@@H](O)[C@H](O)[C@H]2O)[C@H](O)[C@H]1O (stereo partly drawn) [X2, 1,4-β-D-Xylobiose]",
    "Km [mM]": 4.2
  },
  {
    "Molecule": "OC[C@@H]1O[C@@H](OC[C@@H]2OC(O)[C@H](O)[C@H]2O)[C@H](O)[C@H]1O (stereo partly drawn) [A2, 1,5-α-L-arabinobiose]",
    "Km [mM]": 1.2
  },
  {
    "Molecule": "OC1OC[C@@H](O[C@@H]2OC[C@@H](O[C@@H]3OC[C@@H](O)[C@H](O)[C@H]3O)[C@H](O)[C@H]2O)[C@H](O)[C@H]1O (stereo partly drawn) [X3, 1,4-β-D-xylotriose]",
    "Km [mM]": 3.8
  },
  {
    "Molecule": "OC1OC[C@@H](O[C@@H]2OC[C@@H](O[C@@H]3OC[C@@H](O[C@@H]4OC[C@@H](O[C@@H]5OC[C@@H](O)[C@H](O)[C@H]5O)[C@H](O)[C@H]4O)[C@H](O)[C@H]3O)[C@H](O)[C@H]2O)[C@H](O)[C@H]1O (stereo partly drawn) [X5, 1,4-β-D-xylopentaose]",
    "Km [mM]": 3.7
  }
]

###

target: SXA (Selenomonas ruminantium, UniProt O52575); details: pH 5.3, 25° C.
Reported kcat lower than previous determination (Example 1) values for a set of compounds
Measure: kcat lower than previous determination (Example 1) (%)

[
  {
    "Compound": "OC1OC[C@@H](O[C@@H]2OC[C@@H](O[C@@H]3OC[C@@H](O[C@@H]4OC[C@@H](O[C@@H]5OC[C@@H](O)[C@H](O)[C@H]5O)[C@H](O)[C@H]4O)[C@H](O)[C@H]3O)[C@H](O)[C@H]2O)[C@H](O)[C@H]1O (some centres unmarked)",
    "Measure Unit": "%",
    "Quantitative Readout": 49
  },
  {
    "Compound": "OC1OC[C@@H](O[C@@H]2OC[C@@H](O)[C@H](O)[C@H]2O)[C@H](O)[C@H]1O (some centres unmarked)",
    "Measure Unit": "%",
    "Quantitative Readout": 55
  },
  {
    "Compound": "OC1OC[C@@H](O[C@@H]2OC[C@@H](O[C@@H]3OC[C@@H](O[C@@H]4OC[C@@H](O[C@@H]5OC[C@@H](O[C@@H]6OC[C@@H](O)[C@H](O)[C@H]6O)[C@H](O)[C@H]5O)[C@H](O)[C@H]4O)[C@H](O)[C@H]3O)[C@H](O)[C@H]2O)[C@H](O)[C@H]1O (some centres unmarked)",
    "Measure Unit": "%",
    "Quantitative Readout": 15
  },
  {
    "Compound": "OC1OC[C@@H](O[C@@H]2OC[C@@H](O[C@@H]3OC[C@@H](O)[C@H](O)[C@H]3O)[C@H](O)[C@H]2O)[C@H](O)[C@H]1O (some centres unmarked)",
    "Measure Unit": "%",
    "Quantitative Readout": 45
  },
  {
    "Compound": "OC1OC[C@@H](O[C@@H]2OC[C@@H](O[C@@H]3OC[C@@H](O[C@@H]4OC[C@@H](O)[C@H](O)[C@H]4O)[C@H](O)[C@H]3O)[C@H](O)[C@H]2O)[C@H](O)[C@H]1O (some centres unmarked)",
    "Measure Unit": "%",
    "Quantitative Readout": 39
  }
]

###

biological target: SXA (Selenomonas ruminantium, UniProt O52575); assay: biochemical; details: Ki^D-xylose, inhibition of SXA-catalyzed hydrolysis of 4NPA, D-xylose α:β 1:2.5, pH 7.0 (100 mM sodium phosphate, I=0.3 M), 25° C.

[
  {
    "Compound": "O=C[C@H](O)[C@@H](O)[C@H](O)CO [D-xylose]",
    "Target Under Test": "SXA (Selenomonas ruminantium, UniProt O52575)",
    "Measure Unit": "mM",
    "Ki": 5.15
  }
]

###

Reported time of peak height of intermediate product, observed values for a set of compounds
target: SXA (Selenomonas ruminantium, UniProt O52575); details: hydrolysis of X6, pH 5.30, 25° C.
Measure: time of peak height of intermediate product, observed (s)

[
  {
    "Compound": "OC1OC[C@@H](O[C@@H]2OC[C@@H](O[C@@H]3OC[C@@H](O[C@@H]4OC[C@@H](O)[C@H](O)[C@H]4O)[C@H](O)[C@H]3O)[C@H](O)[C@H]2O)[C@H](O)[C@H]1O (stereo partly shown)",
    "Quantitative Readout": 8260
  },
  {
    "Compound": "OC1OC[C@@H](O[C@@H]2OC[C@@H](O)[C@H](O)[C@H]2O)[C@H](O)[C@H]1O (stereo partly shown)",
    "Quantitative Readout": 13384
  },
  {
    "Compound": "OC1OC[C@@H](O[C@@H]2OC[C@@H](O[C@@H]3OC[C@@H](O[C@@H]4OC[C@@H](O[C@@H]5OC[C@@H](O)[C@H](O)[C@H]5O)[C@H](O)[C@H]4O)[C@H](O)[C@H]3O)[C@H](O)[C@H]2O)[C@H](O)[C@H]1O (stereo partly shown)",
    "Quantitative Readout": 3138
  },
  {
    "Compound": "OC1OC[C@@H](O[C@@H]2OC[C@@H](O[C@@H]3OC[C@@H](O)[C@H](O)[C@H]3O)[C@H](O)[C@H]2O)[C@H](O)[C@H]1O (stereo partly shown)",
    "Quantitative Readout": 10822
  }
]

###

biological target: SXA (Selenomonas ruminantium, UniProt O52575); assay: biochemical; conditions: inhibition of SXA-catalyzed hydrolysis of 4NPX, pH 7.0, 25° C., I=0.3 M, competitive
pKi: −log10 of the molar value.
Reported pKi values for a set of molecules
Measure: pKi

[
  {
    "Structure String": "O=C[C@H](O)[C@@H](O)[C@H](O)CO",
    "Quantitative Readout": 2.42
  },
  {
    "Structure String": "O=C[C@H](O)[C@@H](O)[C@H](O)[C@H](O)CO",
    "Quantitative Readout": 1.46
  }
]

###

Reported factor by which kcat of SXA is higher than that of the Bacillus pumilus enzyme values for a set of molecules
target: SXA (Selenomonas ruminantium, UniProt O52575); conditions: SXA pH 5.3, 25° C. vs B. pumilus pH 7.15, 25° C.
Measure: factor by which kcat of SXA is higher than that of the Bacillus pumilus enzyme

[
  {
    "Molecule": "OC1OC[C@@H](O[C@@H]2OC[C@@H](O)[C@H](O)[C@H]2O)[C@H](O)[C@H]1O (stereo partly drawn) [X2, 1,4-β-D-Xylobiose]",
    "Quantitative Readout": 10
  },
  {
    "Molecule": "OC1OC[C@@H](O[C@@H]2OC[C@@H](O[C@@H]3OC[C@@H](O)[C@H](O)[C@H]3O)[C@H](O)[C@H]2O)[C@H](O)[C@H]1O (stereo partly drawn) [X3, 1,4-β-D-xylotriose]",
    "Quantitative Readout": 32
  },
  {
    "Molecule": "OC1OC[C@@H](O[C@@H]2OC[C@@H](O[C@@H]3OC[C@@H](O[C@@H]4OC[C@@H](O[C@@H]5OC[C@@H](O[C@@H]6OC[C@@H](O)[C@H](O)[C@H]6O)[C@H](O)[C@H]5O)[C@H](O)[C@H]4O)[C@H](O)[C@H]3O)[C@H](O)[C@H]2O)[C@H](O)[C@H]1O (stereo partly drawn) [X6, 1,4-β-D-xylohexaose]",
    "Quantitative Readout": 27
  }
]

###

target: SXA (Selenomonas ruminantium, UniProt O52575); experiment: biochemical; conditions: Ki^D-xylose, inhibition of SXA-catalyzed hydrolysis of 4NPX, pH 5.3, 25° C., Eq. 3 noncompetitive (mixed); D-xylose α:β 1:2.5
pKi: −log10 of the molar value.
Measure: pKi

[
  {
    "Structure String": "O=C[C@H](O)[C@@H](O)[C@H](O)CO",
    "Quantitative Readout": 2.02
  }
]
